Entry source: patent US8003649B2

DC50 values, listed per item
# study_target: Androgen Receptor (AR) (Homo sapiens, UniProt P10275, T878A)
# Construct: cell based immuno-fluorescence assay using the LNCaP prostate epithelial cell line; endogenous in cells; host or cells: LNCaP clone FGC (ATCC CRL-1740)
# Sequence (P10275 1-920 T878A): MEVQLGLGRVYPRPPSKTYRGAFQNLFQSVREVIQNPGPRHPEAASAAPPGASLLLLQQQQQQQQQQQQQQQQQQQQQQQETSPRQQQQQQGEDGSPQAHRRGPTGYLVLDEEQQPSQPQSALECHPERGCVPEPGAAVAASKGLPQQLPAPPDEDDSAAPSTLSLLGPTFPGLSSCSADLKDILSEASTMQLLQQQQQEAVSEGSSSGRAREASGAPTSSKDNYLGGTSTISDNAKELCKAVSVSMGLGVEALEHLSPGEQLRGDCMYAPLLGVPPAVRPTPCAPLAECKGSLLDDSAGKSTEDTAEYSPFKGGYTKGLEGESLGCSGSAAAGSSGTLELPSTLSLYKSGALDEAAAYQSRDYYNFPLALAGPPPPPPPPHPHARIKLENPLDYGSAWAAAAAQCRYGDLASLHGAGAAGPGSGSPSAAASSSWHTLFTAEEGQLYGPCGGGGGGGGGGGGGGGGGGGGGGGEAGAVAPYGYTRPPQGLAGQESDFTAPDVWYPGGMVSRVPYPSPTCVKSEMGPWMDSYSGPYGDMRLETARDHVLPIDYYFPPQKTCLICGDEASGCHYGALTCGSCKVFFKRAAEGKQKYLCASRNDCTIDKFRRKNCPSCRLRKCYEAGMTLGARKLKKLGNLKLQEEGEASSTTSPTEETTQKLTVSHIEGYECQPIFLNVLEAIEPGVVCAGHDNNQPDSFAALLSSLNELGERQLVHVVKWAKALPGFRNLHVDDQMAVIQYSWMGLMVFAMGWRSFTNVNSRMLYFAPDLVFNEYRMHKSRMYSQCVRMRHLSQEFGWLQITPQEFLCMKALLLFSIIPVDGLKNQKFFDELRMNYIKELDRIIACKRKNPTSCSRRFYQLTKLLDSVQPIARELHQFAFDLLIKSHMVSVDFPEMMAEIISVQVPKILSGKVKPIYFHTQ
# assay_comment: LNCaP Androgen Receptor Down-regulation Cell Assay (immunofluorescence end point)
# Format: cell-based
# stated_conditions: LNCaP prostate carcinoma cells, compound incubation 20-22 hours, 50% reduction of the AR signal; read-out: Androgen Receptor Down-regulation Assay (a) IC50/μM
Quick reminder: number only, in µM, skip the unit.

See these solved cases before continuing.
{"molecule": "COc1ccc(CN2CC3CN(c4ccc5nnc(C(F)(F)F)n5n4)CC3C2)cn1 (centres unmarked)", "assay_result": 1.6}
{"molecule": "OC1(c2ccncc2)CCN(c2ccc3nnc(C(F)(F)F)n3n2)CC1", "assay_result": 7.2}
{"molecule": "FC(F)(F)c1ccc(C(c2ccccc2)N2CCN(c3ccc4nnc(C(F)(F)F)n4n3)CC2)cc1 (centres unmarked)", "assay_result": 1}
{"molecule": "FC(F)(F)c1nnc2ccc(N3CCN(Cc4cnccc4Br)CC3)nn12", "assay_result": 5.9}
{"molecule": "COc1cncc(CN2CC3CN(c4ccc5nnc(C(F)(F)F)n5n4)CC3C2)c1 (centres unmarked)", "assay_result": 2.4}
{"molecule": "FC(F)(F)c1nnc2ccc(N3CCN(Cc4cccc5ccccc45)CC3)nn12", "assay_result": 0.33}
{"molecule": "CN(C)CCCOc1ccc(C2CCN(c3ccc4nnc(C(F)(F)F)n4n3)CC2)cc1", "assay_result": 1.4}
{"molecule": "COCCN(C)C(=O)c1ccc(OC2CCN(c3ccc4nnc(C(F)(F)F)n4n3)CC2)cc1", "assay_result": 3.6}

-- ask Could you tell me which DC50 is on file for CS(=O)(=O)c1cccc(CN2CCN(c3ccc4nnc(C(F)(F)F)n4n3)CC2)c1 ?
-- reply 5.6

====

Each record here notes measured DC50.
# study_target: Androgen Receptor (AR) (Homo sapiens, UniProt P10275, T878A)
# Construct: cell based immuno-fluorescence assay using the LNCaP prostate epithelial cell line; endogenous in cells; host or cells: LNCaP clone FGC (ATCC CRL-1740)
# assay_comment: LNCaP Androgen Receptor Down-regulation Cell Assay (immunofluorescence end point)
# Assay type: cell-based
# stated_conditions: LNCaP prostate carcinoma cells, compound incubation 20-22 hours, 50% reduction of the AR signal; read-out: Androgen Receptor Down-regulation Assay (a) IC50/μM
// return numeric value only (unit: µM, not printed)

{"compound": "Fc1cccc(CN2CCN(c3ccc4nnc(C(F)(F)F)n4c3)CC2)c1", "unit_symbol": "µM", "assay_result": 1.1}
{"compound": "O=C(c1ccc(OC2CCN(c3ccc4nnc(C(F)(F)F)n4n3)CC2)cc1)N1CCOCC1", "unit_symbol": "µM", "assay_result": 5.9}
{"compound": "C[C@H]1CN(Cc2cccc(Br)n2)CCN1c1ccc2nnc(C(F)(F)F)n2n1", "unit_symbol": "µM", "assay_result": 1}
{"compound": "FC(F)(F)c1cccc(CN2CCN(c3ccc4nnc(C(F)(F)F)n4n3)CC2)c1", "unit_symbol": "µM", "assay_result": 0.67}
{"compound": "O=C(c1cccc(OC2CCN(c3ccc4nnc(C(F)(F)F)n4n3)CC2)c1)N1CCCC1", "unit_symbol": "µM", "assay_result": 4.2}
{"compound": "N#Cc1ccc2[nH]cc(CN3CCN(c4ccc5nnc(C(F)F)n5n4)CC3)c2c1", "unit_symbol": "µM", "assay_result": 8.5}

-- ask Which DC50 is reported for this compound? Fc1cccc(CCN2CCN(c3ccc4nnc(C(F)(F)F)n4n3)CC2)c1
-- reply 2

-- ask Suppose we examine the compound Cn1nccc1CCOc1ccc(OC2CCN(c3ccc4nnc(C(F)(F)F)n4n3)CC2)cc1 ; what DC50 value has been reported?
-- reply 0.22

-- ask Any idea what DC50 was measured for C[C@@H]1CN(Cc2ccc(F)c(C#N)c2)CCN1c1ccc2nnc(C(F)(F)F)n2n1 ?
-- reply 1.7

====

# study_target: Androgen Receptor (AR) (Homo sapiens, UniProt P10275, T878A)
# Construct: cell based immuno-fluorescence assay using the LNCaP prostate epithelial cell line; endogenous in cells; host or cells: LNCaP clone FGC (ATCC CRL-1740)
# assay_comment: LNCaP Androgen Receptor Down-regulation Cell Assay (immunofluorescence end point)
# Assay type: cell-based
# stated_conditions: LNCaP prostate carcinoma cells, compound incubation 20-22 hours, 50% reduction of the AR signal; read-out: Androgen Receptor Down-regulation Assay (a) IC50/μM
Measured DC50 by item
Note: unit µM is implicit; provide only the numeric part.

These recorded examples may help you get a feel for the data.
{"compound": "O=C(c1ccc(C2CCN(c3ccc4nnc(C(F)(F)F)n4n3)CC2)cc1)N1CC[C@@H](O)C1 [Example 738]", "assay_result": 3.3}
{"compound": "Cc1ccc(Oc2cccc(CN3CCN(c4ccc5nnc(C(F)(F)F)n5n4)CC3)c2)cc1 [Example 105]", "assay_result": 3.2}
{"compound": "Fc1ccc2[nH]cc(CN3CCN(c4ccc5nnc(C(F)(F)F)n5n4)CC3)c2c1 [Example 283]", "assay_result": 0.78}

Next, consider the following compound.
-- ask Form field - read-out: DC50; system: Androgen Receptor (AR) (Homo sapiens, UniProt P10275, T878A); submitted item: Fc1cccc(CN[C@H]2[C@@H]3CN(c4ccc5nnc(C(F)(F)F)n5n4)C[C@@H]32)c1 [Example 556]
-- reply 4.4

====

// reported DC50 for each item listed
# study_target: Androgen Receptor (AR) (Homo sapiens, UniProt P10275, T878A)
# Construct: cell based immuno-fluorescence assay using the LNCaP prostate epithelial cell line; endogenous in cells; host or cells: LNCaP clone FGC (ATCC CRL-1740)
# assay_comment: LNCaP Androgen Receptor Down-regulation Cell Assay (immunofluorescence end point)
# Format: cell-based
# stated_conditions: LNCaP prostate carcinoma cells, compound incubation 20-22 hours, 50% reduction of the AR signal; read-out: Androgen Receptor Down-regulation Assay (a) IC50/μM
Note: unit µM is implicit; provide only the numeric part.

Example cases with answers are listed next.
{"compound": "C=CCOc1ccc(CN2CCN(c3ccc4nnc(C(F)(F)F)n4n3)CC2)cc1 [Example 139]", "DC50 / µM": 2}
{"compound": "CS(=O)(=O)c1ccccc1CN1CCN(c2ccc3nnc(C(F)(F)F)n3n2)CC1 [Example 57]", "DC50 / µM": 4.3}
{"compound": "C[C@@H]1CN(c2ccc3nnc(C(F)(F)F)n3n2)CCN1Cc1ccc(F)c(C#N)c1 [Example 569]", "DC50 / µM": 2.7}
{"compound": "CN(C)C(=O)c1ccc2[nH]cc(C3CCN(c4ccc5nnc(C(F)(F)F)n5n4)CC3)c2c1 [Example 499]", "DC50 / µM": 1.7}
{"compound": "FC(F)(F)c1nnc2ccc(N3CC4CN(Cc5cccnc5Br)CC4C3)nn12 (centres unmarked) [Example 796]", "DC50 / µM": 0.63}
{"compound": "CN(Cc1ccc(C#N)cc1)C1CCN(c2ccc3nnc(C(F)(F)F)n3n2)CC1 [Example 409]", "DC50 / µM": 3.9}
{"compound": "FC(F)(Cl)c1nnc2ccc(N3CC4CN(Cc5ccccc5)CC4C3)nn12 (centres unmarked) [Example 354]", "DC50 / µM": 2.7}

# context switch: different compound, same DC50
-- ask Lookup: DC50 / Androgen Receptor (AR) (Homo sapiens, UniProt P10275, T878A) / O=C(CN1CCCC1)Nc1cccc(C2CCN(c3ccc4nnc(C(F)(F)F)n4n3)CC2)c1 [Example 712]
-- reply 3
